SYSTEM: T1, SLC2A1 pseudotyped VLPs (Homo sapiens, UniProt P11166)
T1 sequence (P11166 1-492): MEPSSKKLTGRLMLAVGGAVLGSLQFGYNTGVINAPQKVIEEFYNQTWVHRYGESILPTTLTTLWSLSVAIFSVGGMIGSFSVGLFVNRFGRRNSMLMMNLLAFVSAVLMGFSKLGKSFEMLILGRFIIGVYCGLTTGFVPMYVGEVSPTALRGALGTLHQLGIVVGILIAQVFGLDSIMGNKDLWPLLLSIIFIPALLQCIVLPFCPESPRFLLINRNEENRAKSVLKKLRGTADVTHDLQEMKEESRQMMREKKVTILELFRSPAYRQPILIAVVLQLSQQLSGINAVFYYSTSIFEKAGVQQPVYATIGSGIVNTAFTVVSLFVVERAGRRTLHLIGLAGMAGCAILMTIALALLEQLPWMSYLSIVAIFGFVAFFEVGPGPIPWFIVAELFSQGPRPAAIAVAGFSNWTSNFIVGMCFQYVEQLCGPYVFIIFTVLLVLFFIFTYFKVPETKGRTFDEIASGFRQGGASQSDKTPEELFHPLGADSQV
PROCEDURE DETAILS: ELISA-based SLC2A1 VLP binding assay
CONDITION NOTES: 5 μg/mL VLP coating, FIG. 1
ASSAY READOUT: EC50 of binding to SLC2A1 VLPs

MOLECULE	VALUE OBSERVED
2E5 #22 (antibody, V domains shown) VH: AVTLDESGGGLQTPGGALSLVCKASGFTFSTKGMGWVRQTPGKGLEWVAGISSMRRYTYYAPAVKGRATISRDNGQSTVRLQLSSLRAEDSGTYYCARDATYCSWTTSTCGWSGGTIDAWGHGTEVIVSS VL: ALTQPSSVSANLGGTVKITCSGGSGNYGWYQQKSPGSVPVTVIYSNDKRPSDIPSRFSGSGSGSTATLTITGVQVEDEAVYFCGSRDSSYVGLFGAGTTLTVL	low nanomolar
7C3 #39 (antibody, V domains shown) VH: AVTLDESGGGLQTPGGALSLVCKASGFTFSTKGMGWVRQTPGKGLEWVAGISSMRRYTYYAPAVKGRATISRDNGQSTVRLQLSSLRAEDSGTYYCARDATYCSWTTSTCGWSGGTIDAWGHGTEVIVSS VL: ALTQPSSVSANLGGTVKITCSGGGSSSYYGWYQQKSPGSAPVTVIYGNDRRPSDIPSRFSGSASGSTATLTITGVQAEDEAVYFCGSADSSDSGSGIFGAGTTLTVL	low nanomolar
6F12 #33 (antibody, V domains shown) VH: AVTLDESGGGLQTPGGALSLVCKASGFTFSDHAIFWVRQAPDKGLEFVAAISSGTGSWTAYATVVKGRATISRDNGQSTVRLQLNNLRAADTATYYCAKGAGSACCYAGSIDAWGHGTEVIVSS VL: ALTQPSSVSANPGETVKITCSGGSSSSYYGWYQQKSPGSAPVTLIYYNDKRPSDIPSRFSGSKSGSTATLTITGVQVEDEAVYYCGTGDGSFAIFGAGTTLTVL	low nanomolar
